The reader will find AC50 measurements below, all made with Adenosine receptor A1 (Homo sapiens).
Sequence (P30542 whole entry): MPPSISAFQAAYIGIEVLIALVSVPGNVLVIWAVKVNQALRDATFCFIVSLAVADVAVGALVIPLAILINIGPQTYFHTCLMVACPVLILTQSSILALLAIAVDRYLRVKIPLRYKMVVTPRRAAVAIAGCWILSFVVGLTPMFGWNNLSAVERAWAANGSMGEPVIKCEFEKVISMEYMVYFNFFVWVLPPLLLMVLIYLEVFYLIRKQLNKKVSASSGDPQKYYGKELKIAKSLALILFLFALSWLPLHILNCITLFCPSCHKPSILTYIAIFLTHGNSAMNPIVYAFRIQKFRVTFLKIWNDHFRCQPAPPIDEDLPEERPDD

-- ask AC50 for C=C1CC[C@H](O)C/C1=C/C=C1\CCC[C@]2(C)[C@@H]([C@H](C)/C=C/[C@H](C)C(C)C)CC[C@@H]12 ?
-- reply > 30 µM

-- ask AC50 for Cc1cnc(C(=O)NCCc2ccc(S(=O)(=O)NC(=O)NC3CCCCC3)cc2)cn1 [GLIPIZIDE] ?
-- reply > 30 µM

-- ask AC50 for CC(=O)Oc1cc(C(F)(F)F)ccc1C(=O)O ?
-- reply > 30 µM

* * *

- ASSAY_TARGET: UniProt P21731
- Sequence (P21731 whole entry): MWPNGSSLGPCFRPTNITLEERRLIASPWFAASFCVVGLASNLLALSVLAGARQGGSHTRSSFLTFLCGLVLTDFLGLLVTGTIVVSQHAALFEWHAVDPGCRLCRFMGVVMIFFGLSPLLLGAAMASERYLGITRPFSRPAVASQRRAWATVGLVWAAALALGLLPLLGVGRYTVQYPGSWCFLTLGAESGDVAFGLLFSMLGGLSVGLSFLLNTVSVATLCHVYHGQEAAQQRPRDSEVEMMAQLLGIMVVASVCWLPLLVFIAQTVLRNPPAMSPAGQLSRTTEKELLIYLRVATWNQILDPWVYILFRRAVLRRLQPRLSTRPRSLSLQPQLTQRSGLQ
- Type: functional, cell-based
Reported AC50 by item:

Some solved cases for reference:
STRUCTURE	RESULT
O=[N+]([O-])c1ccc(O)c2ncccc12	> 30 µM
COc1c2ccoc2cc2oc(=O)ccc12	> 30 µM
CN1CCC(=C2c3ccccc3Sc3ccccc32)CC1	14 µM

-- ask AC50 for CCc1nc(C(N)=O)c(Nc2ccc(N3CCC(N4CCN(C)CC4)CC3)c(OC)c2)nc1NC1CCOCC1 ?
-- reply > 0.3 µM

-- ask AC50 for CC[C@@]1(O)C(=O)OCc2c1cc1n(c2=O)Cc2cc3c([N+](=O)[O-])cccc3nc2-1 ?
-- reply > 10 µM

* * *

- ASSAY_TARGET: Alpha-2A adrenergic receptor (Homo sapiens); further: assay procedure not described here
- Sequence (P08913 whole entry): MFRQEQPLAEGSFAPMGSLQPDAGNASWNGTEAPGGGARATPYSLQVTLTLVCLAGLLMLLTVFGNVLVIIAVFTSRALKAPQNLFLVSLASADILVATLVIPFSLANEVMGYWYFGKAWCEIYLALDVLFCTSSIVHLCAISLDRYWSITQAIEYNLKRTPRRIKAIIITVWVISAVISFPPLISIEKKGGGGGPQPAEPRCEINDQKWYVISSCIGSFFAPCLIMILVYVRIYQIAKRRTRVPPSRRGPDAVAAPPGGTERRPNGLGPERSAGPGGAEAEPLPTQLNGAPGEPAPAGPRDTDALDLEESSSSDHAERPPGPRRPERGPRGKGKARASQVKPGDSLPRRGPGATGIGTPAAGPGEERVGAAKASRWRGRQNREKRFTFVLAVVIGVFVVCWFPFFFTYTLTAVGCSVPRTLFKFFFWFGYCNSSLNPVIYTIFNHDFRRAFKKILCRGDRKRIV
- Format: functional, cell-based
Reported AC50 by item:

Some solved cases for reference:
COMPOUND	AC50
CC(C)c1nc(N(C)S(C)(=O)=O)nc(-c2ccc(F)cc2)c1/C=C/[C@@H](O)C[C@@H](O)CC(=O)O [ROSUVASTATIN]	> 30 µM
CN(C)CCC[C@@]1(c2ccc(F)cc2)OCc2cc(C#N)ccc21 [ESCITALOPRAM]	> 30 µM
CC1OC2(CS1)CN1CCC2CC1 (stereo not drawn) [CEVIMELINE]	> 10 µM
Cc1cccc(N2CC(CO)OC2=O)c1 (stereo not drawn) [TOLOXATONE]	> 30 µM
CC12CC3CC(C)(C1)CC(N)(C3)C2 [MEMANTINE]	> 10 µM
C[C@]12C=CC(=O)N[C@@H]1CC[C@@H]1[C@@H]2CC[C@]2(C)[C@@H](C(=O)Nc3cc(C(F)(F)F)ccc3C(F)(F)F)CC[C@@H]12 [DUTASTERIDE]	> 10 µM
CO[C@H]1/C=C/O[C@@]2(C)Oc3c(C)c(O)c4c(O)c(c(/C=N/N5CCN(C)CC5)c(O)c4c3C2=O)NC(=O)/C(C)=C\C=C\[C@H](C)[C@H](O)[C@@H](C)[C@@H](O)[C@@H](C)[C@H](OC(C)=O)[C@@H]1C [RIFAMPIN]	> 30 µM

-- ask AC50 for CCN1CCN(Cc2ccc(Nc3ncc(F)c(-c4cc(F)c5nc(C)n(C(C)C)c5c4)n3)nc2)CC1 [ABEMACICLIB] ?
-- reply > 30 µM

* * *

Reported AC50 by item:
- ASSAY_TARGET: Equilibrative nucleoside transporter 1 (Homo sapiens); further: assay procedure not described here
- Sequence (Q99808 whole entry): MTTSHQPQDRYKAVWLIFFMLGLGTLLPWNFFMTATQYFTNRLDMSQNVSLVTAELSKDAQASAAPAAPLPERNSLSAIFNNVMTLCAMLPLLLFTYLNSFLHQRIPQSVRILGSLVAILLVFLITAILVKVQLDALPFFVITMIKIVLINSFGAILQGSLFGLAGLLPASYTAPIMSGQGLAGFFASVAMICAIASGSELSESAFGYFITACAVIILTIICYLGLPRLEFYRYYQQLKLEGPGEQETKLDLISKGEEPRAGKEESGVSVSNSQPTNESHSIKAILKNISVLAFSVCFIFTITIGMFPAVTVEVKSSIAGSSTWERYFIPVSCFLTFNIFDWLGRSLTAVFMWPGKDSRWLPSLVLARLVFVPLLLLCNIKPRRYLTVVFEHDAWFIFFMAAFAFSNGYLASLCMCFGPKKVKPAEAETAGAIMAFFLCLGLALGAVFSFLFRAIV

COMPOUND	ASSAY_TARGET	MEASURED_ATTRIBUTE	RESULT
CC(N)C(O)c1ccccc1 (centres undefined)	Equilibrative nucleoside transporter 1 (Homo sapiens)	AC50	> 30 µM

-- ask AC50 for O=C1C(CC[S+]([O-])c2ccccc2)C(=O)N(c2ccccc2)N1c1ccccc1 (centres undefined) ?
-- reply > 10 µM

-- ask AC50 for CCCCC1C(=O)N(c2ccccc2)N(c2ccccc2)C1=O ?
-- reply > 30 µM

-- ask AC50 for N[C@@H](CC(=O)N1CCn2c(nnc2C(F)(F)F)C1)Cc1cc(F)c(F)cc1F ?
-- reply > 30 µM

-- ask AC50 for COc1cc(N)c(Cl)cc1C(=O)NC1CCN(Cc2ccccc2)CC1 [CLEBOPRIDE] ?
-- reply > 30 µM

-- ask AC50 for COc1cc2nc(N3CCN(C(=O)C4CCCO4)CC3)nc(N)c2cc1OC (centres undefined) ?
-- reply > 30 µM

* * *

- ASSAY_TARGET: Estrogen receptor (Homo sapiens); further: assay procedure not described here
- Sequence (P03372 whole entry): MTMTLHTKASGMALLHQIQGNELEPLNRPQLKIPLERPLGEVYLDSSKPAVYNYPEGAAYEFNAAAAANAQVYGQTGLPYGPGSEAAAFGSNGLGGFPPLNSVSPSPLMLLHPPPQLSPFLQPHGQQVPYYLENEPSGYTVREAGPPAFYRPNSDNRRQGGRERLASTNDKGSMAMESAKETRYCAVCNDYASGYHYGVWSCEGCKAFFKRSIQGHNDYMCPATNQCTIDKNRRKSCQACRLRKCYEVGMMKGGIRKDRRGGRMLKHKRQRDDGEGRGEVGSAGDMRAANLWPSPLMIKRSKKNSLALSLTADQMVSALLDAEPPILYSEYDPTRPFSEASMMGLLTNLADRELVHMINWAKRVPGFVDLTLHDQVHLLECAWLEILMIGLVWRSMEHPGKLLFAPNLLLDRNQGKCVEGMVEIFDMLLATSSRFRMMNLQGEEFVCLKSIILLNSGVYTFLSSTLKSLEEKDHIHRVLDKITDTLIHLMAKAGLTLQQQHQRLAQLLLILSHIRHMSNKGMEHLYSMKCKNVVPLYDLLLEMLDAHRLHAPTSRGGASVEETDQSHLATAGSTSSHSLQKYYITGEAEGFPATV
Reported AC50 by item:

Some solved cases for reference:
COMPOUND	AC50
CC(C)Cc1ccc(C(C)C(=O)O)cc1 (stereo not given)	21.3 µM
CC(C(=O)O)c1ccc(-c2ccccc2)c(F)c1 (stereo not given)	> 30 µM
CN1C(C(=O)Nc2ccccn2)=C(O)c2ccccc2S1(=O)=O	> 10 µM

-- ask AC50 for O=C(O)CCNC(=O)c1ccccc1 ?
-- reply > 30 µM

-- ask AC50 for COc1ccccc1OCCNCC(O)COc1cccc2[nH]c3ccccc3c12 (stereo not given) ?
-- reply > 30 µM

-- ask AC50 for CC(N)C12CC3CC(CC(C3)C1)C2 (stereo not given) ?
-- reply > 10 µM

-- ask AC50 for OC1(c2ccc(Cl)cc2)c2ccccc2C2=NCCN21 (stereo not given) ?
-- reply > 30 µM

-- ask AC50 for CC(=O)SC[C@@H](C)C(=O)N1CCC[C@H]1C(=O)N[C@@H](Cc1ccccc1)C(=O)O ?
-- reply > 30 µM

-- ask AC50 for CC(C)[C@H](N)C(=O)OCC(CO)OCn1cnc2c(=O)nc(N)[nH]c21 (stereo not given in full) ?
-- reply > 30 µM

-- ask AC50 for CC(=O)O[C@]1(C(C)=O)CC[C@H]2[C@@H]3C=C(C)C4=CC(=O)CC[C@@H]4[C@H]3CC[C@@]21C [NOMEGESTROL ACETATE] ?
-- reply > 30 µM

* * *

The reader will find AC50 measurements below, all made with UniProt:P08908.
Sequence (P08908 whole entry): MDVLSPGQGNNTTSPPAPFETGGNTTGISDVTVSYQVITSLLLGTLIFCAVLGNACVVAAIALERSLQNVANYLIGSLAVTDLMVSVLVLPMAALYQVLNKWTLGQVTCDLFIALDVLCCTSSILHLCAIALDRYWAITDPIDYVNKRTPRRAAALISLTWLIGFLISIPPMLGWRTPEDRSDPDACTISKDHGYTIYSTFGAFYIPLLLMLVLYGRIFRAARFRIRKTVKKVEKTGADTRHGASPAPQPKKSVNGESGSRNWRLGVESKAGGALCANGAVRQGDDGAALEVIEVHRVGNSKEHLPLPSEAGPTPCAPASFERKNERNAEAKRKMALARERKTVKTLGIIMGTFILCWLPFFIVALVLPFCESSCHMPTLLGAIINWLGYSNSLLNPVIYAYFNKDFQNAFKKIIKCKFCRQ

MOLECULE	AC50
CCC(=O)O[C@]1(C(=O)CCl)[C@@H](C)C[C@H]2[C@@H]3C[C@H](F)C4=CC(=O)C=C[C@]4(C)[C@@]3(F)[C@@H](O)C[C@@]21C [HALOBETASOL PROPIONATE]	> 30 µM
N[C@@H](CS)C(=O)O	> 30 µM
CC(N)Cc1ccc(O)cc1 (centres undefined) [HYDROXYAMPHETAMINE]	> 30 µM
CC(C)OC(=O)CCC/C=C\C[C@@H]1[C@@H](/C=C/C(F)(F)COc2ccccc2)[C@H](O)C[C@@H]1O	> 30 µM
CC(C)C[C@H](NC(=O)CNC(=O)c1cc(Cl)ccc1Cl)B(O)O	> 30 µM

-- ask Which AC50 is reported with UniProt:P08908 for this entry: FC(F)(F)c1ccc(CNc2ccc(Cc3c[nH]c4ncc(Cl)cc34)cn2)cn1 ?
-- reply 0.627 µM

-- ask Which AC50 is reported with UniProt:P08908 for this entry: COc1c2ccoc2cc2oc(=O)ccc12 ?
-- reply > 30 µM

-- ask Which AC50 is reported with UniProt:P08908 for this entry: COc1ccc(CN(CCN(C)C)c2ccccn2)cc1 ?
-- reply 26.4 µM

-- ask Which AC50 is reported with UniProt:P08908 for this entry: CCCC(CCC)C(=O)O ?
-- reply > 30 µM

Data credit: ChEMBL document CHEMBL5291721
